# tested_system: SHP-2 enzyme (Homo sapiens)
# Construct: Homogeneous Full Length SHP-2 Assay Kit (BPS Bioscience #79330)
# method_notes: Phosphatase activity assay (Homogeneous Full Length SHP-2 Assay Kit, DiFMUP substrate)
# applied_conditions: full length SHP-2 activated with 0.5 μM SHP-2 activating Peptide; 1 hour co-incubation; DiFMUP 50 μM, 30 min
pIC50: −log10 of the molar value.
assay_metric: pIC50

1 = COc1ccc2c(c1)C(N)C1(CCN(c3ncc(C(=O)N4Cc5sc(N)nc5C(F)(F)C4)nc3CO)CC1)C2 (centres unmarked)
2 = Nc1nc(N2CCC3(CC2)Cc2ccccc2C3N)cnc1C(=O)N1CCCc2cccnc21 (centres unmarked)
Q. Given 1 and given 2 , which shows the smaller recorded pIC50? Identify your pick by its label.
A. 2
(2: 7.31, 1: 8.15)

A = Nc1ccc2c(n1)CCN2C(=O)c1ncc(N2CCC3(CC2)Cc2ccc(CO)cc2C3N)nc1N (centres unmarked)
B = Nc1nc(N2CCC3(CC2)Cc2ccc(Cl)cc2C3N)cnc1C(=O)N1CCCn2nccc21 (centres unmarked)
Q. Endpoint returns the identifier whose pIC50 is numerically larger, either A or B . Identify your pick by its label.
A. B
(B: 8.40, A: 8.05)

A = NC1c2ccccc2CC12CCN(c1ncc(C(=O)N3CCc4ncsc4C3)c3nccn13)CC2 (centres unmarked)
B = Nc1ccc2c(n1)CCN2C(=O)c1cnc(N2CCC3(CC2)Cc2ccccc2C3N)c(CO)n1 (centres unmarked)
Q. Endpoint returns the identifier whose pIC50 is numerically larger, either A or B . Identify your pick by its label.
A. B
(B: 8.15, A: 7.54)

====

# tested_system: SHP-2 enzyme (Homo sapiens, UniProt Q06124)
# Construct: Homogeneous Full Length SHP-2 Assay Kit (BPS Bioscience #79330)
# method_notes: Phosphatase activity assay (Homogeneous Full Length SHP-2 Assay Kit, DiFMUP substrate)
# applied_conditions: full length SHP-2 activated with 0.5 μM SHP-2 activating Peptide; 1 hour co-incubation; DiFMUP 50 μM, 30 min
# Method: IC50 values were assayed using Homogeneous Full Length SHP-2 Assay Kit (BPS Bioscience #79330), which uses 6,8-difluoro-4-methylumbelliferone phosphate (DiFMUP) as the reaction substrate. […] After 30 min of incubation, the fluorescence intensity of the reaction system (excitation wavelength: 350 nm, emission wavelength: 460 nm) was measured by Tecan Infinite M1000.
pIC50: −log10 of the molar value.
assay_metric: pIC50

Nc1nc(N2CCC3(CC2)Cc2ccccc2C3N)cnc1C(=O)N1CCCc2ncccc21 (stereo not shown) = 7.96

P = Nc1nc(N2CCC3(CC2)Cc2cc(F)ccc2C3N)cnc1C(=O)N1CCc2ncccc21 (stereo not shown)
Q = Nc1ccc2c(n1)CCCN2C(=O)c1ncc(N2CCC3(CC2)Cc2ccccc2C3N)nc1N (stereo not shown)
R = CC1CN(C(=O)c2ncc(N3CCC4(CC3)Cc3cc(F)ccc3C4N)nc2N)c2ccc(N)nc21 (stereo not shown)
S = Nc1nc(N2CCC3(CC2)Cc2ccccc2C3N)cnc1C(=O)N1CCOc2cccnc21 (stereo not shown)
Q. Ordering: ascending pIC50. Response field: labels, in requested order.
A. S, Q, R, P
(S: 7.08, Q: 7.59, R: 8.30, P: 8.52)

A = Cc1nc(C(=O)N2CCc3nc(N)ccc32)c(N)nc1N1CCC2(CC1)Cc1ccccc1C2N (stereo not shown)
B = Cc1nc(N2CCC3(CC2)Cc2ccccc2C3N)c(CO)nc1C(=O)N1Cc2sc(N)nc2C(F)(F)C1 (stereo not shown)
Q. Endpoint returns the identifier whose pIC50 is numerically larger, either A or B . Identify your pick by its label.
A. A

1 = CC1(C)CN(C(=O)c2ncc(N3CCC4(CC3)Cc3ccccc3C4N)nc2N)Cc2scnc21 (stereo not shown)
2 = Cc1ccc2c(c1)C(N)C1(CCN(c3cnc(C(=O)N4CCc5nc(N)ccc54)c(N)n3)CC1)C2 (stereo not shown)
Q. Endpoint returns the identifier whose pIC50 is numerically larger, either 1 or 2 . Identify your pick by its label.
A. 2
(2: 8.30, 1: 8.10)

====

# tested_system: SHP-2 enzyme (Homo sapiens)
# Construct: Homogeneous Full Length SHP-2 Assay Kit (BPS Bioscience #79330)
# method_notes: Phosphatase activity assay (Homogeneous Full Length SHP-2 Assay Kit, DiFMUP substrate)
# applied_conditions: full length SHP-2 activated with 0.5 μM SHP-2 activating Peptide; 1 hour co-incubation; DiFMUP 50 μM, 30 min
assay_metric: IC50 (nM)

COc1ccc2c(c1)C(N)C1(CCN(c3cnc(C(=O)N4CCc5nc(N)ccc54)c(N)n3)CC1)C2 (centres unmarked) [Compound 62] = 5
Cc1cc2c(cc1C)C(N)C1(CCN(c3cnc(C(=O)N4CCc5nc(N)sc5C4)c(N)n3)CC1)C2 (centres unmarked) [Compound 99] = 10
Nc1nc2c(s1)CN(C(=O)c1ncc(N3CCC4(CC3)Cc3ccc(F)cc3C4N)nc1N)CC2(F)F (centres unmarked) [Compound 116] = 5
Nc1nc(N2CCC3(CC2)Cc2ccccc2C3N)c(Cl)nc1C(=O)N1CCCn2ncc(Cl)c21 (centres unmarked) [Compound 31] = 47
Nc1nc(N2CCC3(CC2)Cc2cc(Cl)ccc2C3N)cnc1C(=O)N1CCc2ncccc21 (centres unmarked) [Compound 53] = 4

a = Cn1cnc2c1CCCN2C(=O)c1ncc(N2CCC3(CC2)Cc2ccccc2C3N)nc1N (centres unmarked) [Compound 50]
b = Nc1nc(N2CCC3(CC2)Cc2ccc(C(F)(F)F)cc2C3N)cnc1C(=O)N1CCCn2nccc21 (centres unmarked) [Compound 22]
c = Cc1ccc2c(c1)C(N)C1(CCN(c3cnc(C(=O)N4Cc5sc(N)nc5C(F)(F)C4)c(N)n3)CC1)C2 (centres unmarked) [Compound 124]
Q. Arrange these compounds by their IC50, starting with the largest number. Response field: labels, in requested order.
A. a, c, b

a = NC(=O)c1nc(C(=O)N2Cc3sc(N)nc3C(F)(F)C2)cnc1N1CCC2(CC1)Cc1ccccc1C2N (centres unmarked) [Compound 117]
b = Nc1nc(N2CCC3(CC2)Cc2ccccc2C3N)cnc1C(=O)N1Cc2cccnc2C1 (centres unmarked) [Compound 20]
Q. Given a and given b , which shows the smaller recorded IC50? Identify your pick by its label.
A. a

P = Nc1nc(N2CCC3(CC2)Cc2cc(F)ccc2C3N)nnc1C(=O)N1CCCn2nccc21 (centres unmarked) [Compound 59]
Q = Nc1nc(N2CCC3(CC2)Cc2ccccc2C3N)cnc1C(=O)N1CCCc2c(Cl)cccc21 (centres unmarked) [Compound 14]
Q. Given P and given Q , which shows the smaller recorded IC50? Identify your pick by its label.
A. P
(P: 6 nM, Q: 22 nM)

====

# tested_system: SHP-2 enzyme (Homo sapiens)
# Construct: Homogeneous Full Length SHP-2 Assay Kit (BPS Bioscience #79330)
# method_notes: Phosphatase activity assay (Homogeneous Full Length SHP-2 Assay Kit, DiFMUP substrate)
# applied_conditions: full length SHP-2 activated with 0.5 μM SHP-2 activating Peptide; 1 hour co-incubation; DiFMUP 50 μM, 30 min
pIC50: −log10 of the molar value.
assay_metric: pIC50

Nc1nc(N2CCC3(CC2)Cc2c(F)cccc2C3N)nnc1C(=O)N1CCCn2nccc21 (centres unmarked) = 7.96
Nc1ccc2c(n1)CCN2C(=O)c1ncc(N2CCC3(CC2)Cc2cccc(F)c2C3N)nc1N (centres unmarked) = 7.62
Cc1nc(C(=O)N2CCc3nc(N)ccc32)c(N)nc1N1CCC2(CC1)Cc1ccc(F)cc1C2N (centres unmarked) = 8.05
NC1c2ccccc2CC12CCN(c1cnc(C(=O)N3CCCn4nccc43)cn1)CC2 (centres unmarked) = 7.23
CC1(C)CCN(C(=O)c2ncc(N3CCC4(CC3)Cc3ccccc3C4N)nc2N)c2ccnn21 (centres unmarked) = 8.05
Nc1nc2c(s1)CN(C(=O)c1ncc(N3CCC4(CC3)Cc3cc(F)ccc3C4N)nc1N)CC2(F)F (centres unmarked) [Compound 114] = 8.15
[2H]C1([2H])CN(C(=O)c2ncc(N3CCC4(CC3)Cc3ccccc3C4N)nc2N)Cc2sc(N)nc21 (centres unmarked) = 8.52
Nc1nc2c(s1)CN(C(=O)c1ncc(N3CCC4(CC3)Cc3ccccc3C4N)nc1N)CC2 (centres unmarked) = 8.30

I = CNc1ccc2c(n1)CCN2C(=O)c1nc(C)c(N2CCC3(CC2)Cc2ccccc2C3N)nc1N (centres unmarked)
II = Nc1nc2c(s1)CN(C(=O)c1nc(Cl)c(N3CCC4(CC3)Cc3ccccc3C4N)nc1N)CC2 (centres unmarked)
III = Nc1nc(N2CCC3(CC2)Cc2ccccc2C3N)cnc1C(=O)N1CCCc2n[nH]cc21 (centres unmarked)
IV = Nc1nc(N2CCC3(CC2)Cc2ncccc2C3N)cnc1C(=O)N1CCCn2nccc21 (centres unmarked)
Q. Ordering: ascending pIC50. Response field: labels, in requested order.
A. IV, I, III, II
